Tested on: JCK
TEST_DESCRIPTION: qHTS profiling for inhibitors of Plasmodium falciparum proliferation (AID 504749); note: nearly all actives have a fitted effect of over 60% in size
CONDITION_LABEL: P. falciparum in erythrocytes, SYBR Green DNA, 72 h; series mostly up to 28.7 µM
Records with an inconclusive call do not appear. The source made the active and inactive calls. Calls come from the whole dose curve; as a rule, active = well fitted inhibition curve with a large enough effect; inconclusive = small, poorly fitted or top-dose-only effect; inactive = flat fitted curve, though single readings scatter.
Labels: active, inactive

{"columns": ["MOLECULE", "TESTED_ON", "CLASS_LABEL"],
 "data": [
  ["O=C1C(CCS(=O)c2ccccc2)C(=O)N(c2ccccc2)N1c1ccccc1 (centres undefined)", "JCK", "inactive"],
  ["CC1=C(C(=O)O)N2C(=O)[C@@H](NC(=O)[C@H](N)c3ccccc3)[C@H]2SC1", "JCK", "inactive"],
  ["CCOc1ccc(NC(C)=O)cc1", "JCK", "inactive"],
  ["NC(N)=NCc1cccc(I)c1", "JCK", "inactive"],
  ["C#C[C@]1(O)CC[C@H]2[C@@H]3CCC4=Cc5oncc5C[C@]4(C)[C@H]3CC[C@@]21C", "JCK", "inactive"],
  ["CN(C)C(=O)Nc1ccc(Cl)c(Cl)c1", "JCK", "inactive"],
  ["O=C(Oc1cccc2cccnc12)c1ccccc1", "JCK", "inactive"],
  ["CCCCCCCC/C=C\\CCCCCCCCN", "JCK", "inactive"],
  ["Cc1ccc(S(=O)(=O)NC(=O)NC2CCCC2)cc1", "JCK", "inactive"],
  ["COc1ccc(-c2cc(C(F)F)nn2-c2ccc(S(N)(=O)=O)cc2)cc1F", "JCK", "inactive"],
  ["CC(=O)OC[C@H]1O[C@@H](n2ncc(=O)[nH]c2=O)[C@H](OC(C)=O)[C@@H]1OC(C)=O", "JCK", "inactive"],
  ["O=[N+]([O-])c1cccc(S(=O)(=O)NCCNS(=O)(=O)c2cccc([N+](=O)[O-])c2)c1", "JCK", "inactive"],
  ["NS(=O)(=O)Cc1noc2ccccc12", "JCK", "inactive"],
  ["CCCCCCCCCCCCCC(=O)OC(C)C", "JCK", "inactive"],
  ["Cc1ncc(CO)c(C=O)c1O", "JCK", "inactive"],
  ["CN1CCN(c2cc3c(cc2F)c(=O)c(C(=O)O)cn3-c2ccc(F)cc2)CC1", "JCK", "inactive"],
  ["CCOC(=O)c1ccc(N)cc1", "JCK", "inactive"],
  ["O=C(NCCc1c[nH]c2ccccc12)c1cccnc1", "JCK", "inactive"],
  ["CC[C@H](c1ccc(O)cc1)[C@@H](CC)c1ccc(O)cc1", "JCK", "inactive"],
  ["Cl/C(=C\\n1cncn1)c1ccc(Cl)cc1Cl", "JCK", "inactive"],
  ["Cc1c(-c2ccccc2)oc2c(C(=O)OCCN3CCCCC3)cccc2c1=O", "JCK", "inactive"],
  ["CCN(CC)CCNC(=O)COc1ccc(OC)cc1", "JCK", "inactive"],
  ["CCCCCCCCCCCCCCCC(=O)O", "JCK", "inactive"],
  ["OCc1ccccn1", "JCK", "inactive"],
  ["Cc1cccc(C)c1NC(=O)CN1CCCCCC1", "JCK", "inactive"],
  ["Cc1cccc(C)c1NC(=O)c1ccccc1C(=O)O", "JCK", "inactive"],
  ["CC(C)(C)CC(C)(C)c1ccc(O)c(-n2nc3ccccc3n2)c1", "JCK", "inactive"],
  ["Nc1ccc(S(=O)(=O)Nc2cnc3ccccc3n2)cc1", "JCK", "inactive"],
  ["CCCCCCCCNC(C)C(O)c1ccc(SC(C)C)cc1 (centres undefined)", "JCK", "active"],
  ["O=C(Nc1ccc([N+](=O)[O-])cc1)Nc1ccc([N+](=O)[O-])cc1", "JCK", "inactive"],
  ["Cc1ccc(O)c([C@H](CCN(C(C)C)C(C)C)c2ccccc2)c1", "JCK", "active"],
  ["Cc1c[nH]c2ccccc12", "JCK", "inactive"],
  ["C#C[C@]1(O)CC[C@H]2[C@@H]3CCC4=CC(=O)CC[C@@H]4[C@H]3CC[C@@]21CC", "JCK", "inactive"],
  ["OCCOCCN1CCN(C2=Nc3ccccc3Sc3ccccc32)CC1", "JCK", "inactive"],
  ["COc1ccc(CCN(C)CCCN2CCc3cc(OC)c(OC)cc3CC2=O)cc1OC", "JCK", "inactive"],
  ["COc1cc(C(=O)N2CCCCCCC2)cc(OC)c1OC", "JCK", "inactive"],
  ["CCCCCCCCCCCCSCCOCCO", "JCK", "inactive"],
  ["CCc1oc2ccccc2c1C(=O)c1cc(Br)c(O)c(Br)c1", "JCK", "inactive"],
  ["Cc1cc(CC(=O)O)c(C)n1-c1ccc(Cl)cc1", "JCK", "inactive"],
  ["CCOc1ccccc1OCCN[C@H](C)Cc1ccc(OC)c(S(N)(=O)=O)c1", "JCK", "inactive"],
  ["N=C(N)N1CCc2ccccc2C1", "JCK", "inactive"],
  ["CCCCCCCCCCCCCC[N+](C)(C)Cc1ccccc1", "JCK", "active"],
  ["C/C=C/c1ccc(O)c(OC)c1", "JCK", "inactive"],
  ["O=C(CN1CCN(Cc2ccc3c(c2)OCO3)CC1)N1c2ccccc2Sc2ccccc21", "JCK", "inactive"]
]}
